Taken from patent US20120070411A1.

# EC50 per record follows
Tested on: Huh-7 cells containing the self-replicating, subgenomic HCV replicon
Experiment: HCV replicon assay (luciferase reporter, 72 h)
Type: cell-based
Conditions: Hepatitis C virus, Huh-7, 72 h, read-out: HCV Replicon Activity (EC50)

- compound: "CC(C)OC(=O)[C@H](C)NP(=O)(Oc1ccccc1)O[C@@H](C)[C@H]1O[C@@H](n2cnc3c(N)ncnc32)[C@H](O)[C@@H]1O (stereo partly drawn)"
  EC50: "< 1 µM"
- compound: "COC(=O)Nc1ncnc2c1ncn2[C@@H]1O[C@H]([C@H](C)OP(=O)(N[C@@H](C)C(=O)OCC(C)(C)C)Oc2cccc3ccccc23)[C@H]2OC(=O)O[C@H]21 (stereo partly drawn)"
  EC50: "< 30 µM"
- compound: "Cc1ccccc1OP(=O)(N[C@@H](C)C(=O)OC1CCCCC1)O[C@@H](C)[C@H]1O[C@@H](n2cnc3c(N)ncnc32)[C@H](O)[C@@H]1O (stereo partly drawn)"
  EC50: "< 1 µM"
- compound: "C[C@H](OP(=O)(N[C@@H](Cc1ccccc1)C(=O)OC1CCCCC1)Oc1ccccc1)[C@H]1O[C@@H](n2cnc3c(N)ncnc32)[C@H](O)[C@@H]1O (stereo partly drawn)"
  EC50: "< 30 µM"
- compound: "C[C@H](NP(=O)(Oc1ccccc1)O[C@@H](C)[C@H]1O[C@@H](n2cnc3c(N)ncnc32)[C@H](O)[C@@H]1O)C(=O)OCC(C)(C)C (stereo partly drawn)"
  EC50: "< 1 µM"
- compound: "COC(=O)[C@H](C)NP(=O)(Oc1ccccc1)O[C@@H](C)[C@H]1O[C@@H](n2ccc(N)nc2=O)[C@H](O)[C@@H]1O (stereo partly drawn)"
  EC50: "< 100 µM"

###

System: Huh-7 cells containing the self-replicating, subgenomic HCV replicon
Experiment: HCV replicon assay (luciferase reporter, 72 h)
Assay type: cell-based
Details: Hepatitis C virus, Huh-7, 72 h, read-out: HCV Replicon Activity (EC50)
Method: Huh-7 cells containing the self-replicating, subgenomic HCV replicon with a stable luciferase (LUC) reporter were cultured in Dulbecco's modified Eagle's medium (DMEM) containing 2 mM L-glutamine and supplemented with 10% heat-inactivated fetal bovine serum (FBS), 1% penicillin-streptomyocin, 1% nonessential amino acids, and 0.5 mg/ml G418. On the first day, 5,000 HCV replicon cells were plated per well in a 96-well plate. […]
endpoint: EC50

- compound: "CSCC[C@H](NP(=O)(Oc1ccccc1)O[C@@H](C)[C@H]1O[C@@H](n2cnc3c(N)ncnc32)[C@H](O)[C@@H]1O)C(=O)OC1CCCCC1 (stereo partly drawn) [A41]"
  system_under_test: "Huh-7 cells containing the self-replicating, subgenomic HCV replicon"
  value_observed: "< 1 µM"
- compound: "C[C@H](NP(=O)(Oc1ccc(F)c(Cl)c1)O[C@@H](C)[C@H]1O[C@@H](n2cnc3c(N)ncnc32)[C@H](O)[C@@H]1O)C(=O)OC1CCCCC1 (stereo partly drawn) [A29]"
  system_under_test: "Huh-7 cells containing the self-replicating, subgenomic HCV replicon"
  value_observed: "< 1 µM"
- compound: "CCC(=O)O[C@H]1[C@@H](OC(=O)CC)[C@H](n2cnc3c(N)ncnc32)O[C@@H]1[C@H](C)OP(=O)(N[C@@H](C)C(=O)OCC(C)(C)C)Oc1ccccc1 (stereo partly drawn) [A17]"
  system_under_test: "Huh-7 cells containing the self-replicating, subgenomic HCV replicon"
  value_observed: "< 1 µM"
- compound: "COC(=O)[C@H](C)N[P@@](=O)(Oc1ccccc1)O[C@@H](C)[C@H]1O[C@@H](n2cnc3c(N)ncnc32)[C@H](O)[C@@H]1O"
  system_under_test: "Huh-7 cells containing the self-replicating, subgenomic HCV replicon"
  value_observed: "< 5 µM"
- compound: "CC(C)OC(=O)[C@H](C)NP(=O)(Oc1ccccc1)O[C@H]([C@H]1O[C@@H](n2cnc3c(N)ncnc32)[C@H](O)[C@@H]1O)C(F)(F)F (stereo partly drawn) [A26]"
  system_under_test: "Huh-7 cells containing the self-replicating, subgenomic HCV replicon"
  value_observed: "< 100 µM"
- compound: "CC[C@H](OP(=O)(N[C@@H](C)C(=O)OC(C)C)Oc1ccccc1)[C@H]1O[C@@H](n2cnc3c(N)ncnc32)[C@H](O)[C@@H]1O (stereo partly drawn) [A24]"
  system_under_test: "Huh-7 cells containing the self-replicating, subgenomic HCV replicon"
  value_observed: "< 100 µM"
